study system: human complement factor D (Homo sapiens, UniProt P00746)
Construct: purchased R&D Systems 1824-SE
Sequence (P00746 26-253): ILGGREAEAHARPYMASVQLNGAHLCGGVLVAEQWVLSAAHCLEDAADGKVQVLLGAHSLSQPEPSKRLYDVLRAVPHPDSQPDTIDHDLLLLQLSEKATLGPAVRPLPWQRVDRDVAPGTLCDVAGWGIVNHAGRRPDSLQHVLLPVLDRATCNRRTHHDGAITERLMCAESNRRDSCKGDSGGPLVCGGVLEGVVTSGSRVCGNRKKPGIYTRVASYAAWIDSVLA
assay summary: In vitro enzyme inhibition (Z-Lys-SBzl/DTNB absorbance assay)
Assay type: biochemical
run conditions: Complement Factor D (R&D Systems), substrate Z-Lys-SBzl, A405 nm; read-out: CFD IC50
Record form. Attribute: IC50. Fill in for each entry.

Give the reported IC50 for this compound. NC(=O)c1nn(CC(=O)N2C3CCC(C3)[C@H]2C(=O)Nc2cccc(C(F)(F)F)n2)c2ccc(C3CC3)cc12 (some centres unmarked) [Example 14]
1000 to 10000 nM

Read the entry NC(=O)c1nn(CC(=O)N2C(C(=O)NCc3cccc(Cl)n3)[C@@H]3C[C@@H](O)[C@H]2[C@H]3O)c2ccccc12 (some centres unmarked) [Example 154] and write its reported IC50.
1000 to 10000 nM

Please report the measured IC50 for NC(=O)c1nn(CC(=O)N2[C@@H]3CC[C@@H](C3)[C@H]2C(=O)NCc2cc3c(Cl)c[nH]c3cc2F)c2ccccc12 [Example 198]
> 10000 nM

Identify the reported IC50 for the following entry. NC(=O)c1nn(CC(=O)N2[C@H]3CC[C@H](CC3)[C@@H]2C(=O)NCc2cccc(Cl)c2F)c2ccccc12 [Example 148]
1000 to 10000 nM

Give a short answer stating reported IC50 for NC(=O)c1nn(CC(=O)N2[C@@H]3CC[C@@H](C3)[C@H]2C(=O)NCc2cccc(Cl)c2Cl)c2ccccc12 [Example 70] .
100 to 1000 nM

Answer with the recorded IC50 for the compound listed here: NC(=O)c1nn(CC(=O)N2CC[C@H]2C(=O)NCc2cccc(Cl)c2F)c2cnccc12 [Example 189]
< 100 nM

Given Cc1cc(C)nc(NC(=O)[C@@H]2[C@H]3CC[C@H](C3)N2C(=O)Cn2nc(C(N)=O)c3ccccc32)c1 [Example 67, 2,2,2-trifluoroacetate] , respond with its IC50.
> 10000 nM

# return recorded IC50 for input CC(O)c1nn(CC(=O)N2[C@H](C(=O)Nc3cccc(Cl)n3)C[C@@H]3CCC[C@@H]32)c2ccccc12 (some centres unmarked) [Example 181]
1000 to 10000 nM

For the compound NC(=O)c1nn(CC(=O)N2C3CCC(C3)[C@H]2C(=O)Nc2cccc(C(F)(F)F)n2)c2ccccc12 (some centres unmarked) [Example 13] , report IC50.
1000 to 10000 nM

Using known records, supply IC50 for N#Cc1cc(Cl)c(F)c(CNC(=O)[C@@H]2[C@H]3CC[C@H](C3)N2C(=O)Cn2nc(C(N)=O)c3ccccc32)c1 [Example 113]
1000 to 10000 nM

Tell me IC50 reported for NC(=O)c1nn(CC(=O)N2CC3CC2(C(=O)Nc2cccc(Cl)n2)C3)c2ccccc12 [Example 151]
1000 to 10000 nM

Give the reported value of IC50 for this record: N#Cc1ccc(Cl)c(F)c1CNC(=O)[C@@H]1[C@H]2CC[C@H](C2)N1C(=O)Cn1nc(C(N)=O)c2ccccc21 [Example 119]
1000 to 10000 nM

Tell me measured IC50 for COc1cccc(NC(=O)[C@@H]2[C@H]3CC[C@H](C3)N2C(=O)Cn2nc(C(N)=O)c3ccccc32)n1 [Example 50] please.
1000 to 10000 nM

Quickly give me recorded IC50 for CC(C)(C)OC(=O)N1CCN(C(=O)Cn2nc(C(N)=O)c3ccccc32)[C@H](C(=O)Nc2cccc(Cl)n2)C1 [Example 25]
1000 to 10000 nM

Give IC50 for the following compound: NC(=O)c1nn(CC(=O)N2CCNC[C@H]2C(=O)Nc2cccc(C(F)(F)F)n2)c2ccccc12 [Example 29]
> 10000 nM

In one line, give reported IC50 of the entry NC(=O)c1nn(CC(=O)N2[C@@H]3CC[C@@H](C3)[C@H]2C(=O)NCc2cc(C(=O)O)cc(Cl)c2F)c2ccccc12 [Example 111] .
100 to 1000 nM

Please report IC50 for the following compound: NC(=O)c1nn(CC(=O)N2[C@H]3CC[C@H](C3)[C@H]2C(=O)Nc2cccc(Cl)n2)c2ccc(Cl)cc12 [Example 16]
1000 to 10000 nM

Identify IC50 associated with the compound NC(=O)c1nn(CC(=O)N2[C@H](C(=O)NCc3cccc(Cl)c3F)C[C@@H]3CCC[C@@H]32)c2ccc(C3CC3)cc12 [Example 199]
100 to 1000 nM

Tell us which IC50 value is on record for NC(=O)c1nn(CC(=O)N2[C@@H]3CC[C@@H](C3)[C@H]2C(=O)NCc2cc(CO)cc(Cl)c2F)c2ccccc12 [Example 114]
1000 to 10000 nM

Please give the documented IC50 of NC(=O)c1nn(CC(=O)N2CCCNCC2C(=O)NCc2cccc(Cl)c2F)c2ccccc12 (centres unmarked) [Example 33]
> 10000 nM

// fetch IC50 given entry Cc1ccc2c(c1)c(C(N)=O)nn2CC(=O)N1[C@H](C(=O)NCc2cccc(Cl)c2F)C[C@@H]2CCC[C@@H]21 [Example 165]
100 to 1000 nM

Answer with the recorded IC50 for the compound listed here: NC(=O)c1nn(CC(=O)N2[C@@H]3CC[C@@H](C3)[C@H]2C(=O)NCc2cc(Br)cc(Cl)c2F)c2ccccc12 [Example 109]
100 to 1000 nM

Assign IC50 to the following record: NC(=O)c1nn(CC(=O)N2[C@H]3CC[C@H](CC3)[C@@H]2C(=O)Nc2cccc(Cl)n2)c2ccccc12 [Example 155]
1000 to 10000 nM

Answer with the recorded IC50 for the compound listed here: COC(=O)c1nn(CC(=O)N2[C@@H]3CC[C@@H](C3)[C@H]2C(=O)Nc2cccc(Cl)n2)c2ccccc12 [Example 82]
1000 to 10000 nM

Read off the recorded IC50 for NC(=O)c1nn(CC(=O)N2CCCC[C@H]2C(=O)Nc2cccc(Br)n2)c2ccccc12 [Example 20]
100 to 1000 nM

Look up and report measured IC50 for this entry: NC(=O)c1nn(CC(=O)N2[C@H]3CC[C@H]([C@H](O)C3)[C@@H]2C(=O)NCc2cccc(Cl)c2F)c2ccccc12 [Example 153]
> 10000 nM
